Entries and their measured kon follow.
tested target: T1, Human BCMA (human, UniProt Q02223 1-54, limits assumed)
T1 construct: also called huBCMA; B-cell maturation antigen
T1 sequence (looked up): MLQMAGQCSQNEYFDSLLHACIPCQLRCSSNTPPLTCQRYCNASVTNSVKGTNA
test summary: SPR, IgG immobilised, human BCMA analyte
Hi! Could you send only the number? It should be in M⁻¹ s⁻¹, unit omitted.

Example entries and their recorded answers appear below.
binder	numeric result
COMBO_Rd4_0.6nM_C21 (antibody, V domains shown, IgG) VH: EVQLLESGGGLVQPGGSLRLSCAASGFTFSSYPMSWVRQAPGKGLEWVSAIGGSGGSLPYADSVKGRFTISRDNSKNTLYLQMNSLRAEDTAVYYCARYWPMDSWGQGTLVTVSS VL: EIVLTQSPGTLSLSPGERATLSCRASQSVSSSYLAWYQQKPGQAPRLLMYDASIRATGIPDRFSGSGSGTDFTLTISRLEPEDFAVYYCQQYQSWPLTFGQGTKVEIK	1.34e+07
A02_Rd4_0.6nM_C10 (antibody, V domains shown, IgG) VH: EVQLLESGGGLVQPGGSLRLSCAASGFTFSSYAMNWVRQAPGKGLEWVSAISGWGGSLPYADSVKGRFTISRDNSKNTLYLQMNSLRAEDTAVYYCARYWPMDSWGQGTLVTVSS VL: EIVLTQSPGTLSLSPGERATLSCRASQSVSAQYLAWYQQKPGQAPRLLMYDASIRATGIPDRFSGSGSGTDFTLTISRLEPEDFAVYYCQQYQRWPLTFGQGTKVEIK	2.3e+06
COMBO_Rd4_6nM_C25 (antibody, V domains shown, IgG) VH: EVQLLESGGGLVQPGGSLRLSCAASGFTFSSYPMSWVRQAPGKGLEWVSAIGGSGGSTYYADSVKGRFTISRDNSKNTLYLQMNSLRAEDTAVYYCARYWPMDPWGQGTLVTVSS VL: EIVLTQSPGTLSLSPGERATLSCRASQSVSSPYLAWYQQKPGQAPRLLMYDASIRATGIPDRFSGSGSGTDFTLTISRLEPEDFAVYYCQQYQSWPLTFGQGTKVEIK	7.98e+06

Ask: What measured kon goes with A02_Rd4_0.6nM_C06 (antibody, V domains shown, IgG) VH: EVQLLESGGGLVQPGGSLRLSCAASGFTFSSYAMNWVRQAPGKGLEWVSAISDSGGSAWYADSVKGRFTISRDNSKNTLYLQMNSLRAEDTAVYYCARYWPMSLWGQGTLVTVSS VL: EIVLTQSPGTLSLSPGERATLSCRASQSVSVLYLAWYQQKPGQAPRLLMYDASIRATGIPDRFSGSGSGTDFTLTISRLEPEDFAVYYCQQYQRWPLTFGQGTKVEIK ?
Result: 3.49e+06

Ask: So what does the record say about kon for P5C1_VHVL (antibody, V domains shown, IgG; also called PC1) VH: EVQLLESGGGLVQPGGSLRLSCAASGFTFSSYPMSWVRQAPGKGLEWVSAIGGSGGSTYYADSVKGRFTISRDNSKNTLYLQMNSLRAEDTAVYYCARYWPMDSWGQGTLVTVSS VL: EIVLTQSPGTLSLSPGERATLSCRASQSVSSTYLAWYQQKPGQAPRLLIYDASSRAPGIPDRFSGSGSGTDFTLTISRLEPEDFAVYYCQQYSTSPLTFGQGTKVEIK ?
Result: 1.16e+07
